Origin of the recorded values: paper PMC9490236

Let's look at some compounds and their measured Caco_R3.
Tested on: Caco-2 cells
assay method text: Caco-2 permeability assay (apical to basolateral)
Type: in vitro ADME, human
setup conditions: Caco-2
Where a SMILES comes first, the peptide text is derived from it. [ ]: non-standard residue; d: D form. NMeF = CN[C@@H](Cc1ccccc1)C(=O)O; dNMeF = CN[C@H](Cc1ccccc1)C(=O)O; dNMeL = CN[C@H](CC(C)C)C(=O)O; NMeA = CN[C@@H](C)C(=O)O; dNMeA = CN[C@H](C)C(=O)O

- compound: "CC[C@@H](C)[C@H]1NC(=O)[C@@H](Cc2ccccc2)NC(=O)[C@@H](CC(C)C)NC(=O)[C@@H]2CCCN2C(=O)[C@H]2CCCN2C(=O)[C@H](CC(C)C)NC(=O)[C@H](CC(C)C)NC(=O)[C@@H](CC(C)C)N(C)C(=O)[C@H](C)N(C)C(=O)[C@H]2CCCN2C1=O [Design D10.34] (cyclo([dL][dF][dI][dP][NMeA][dNMeL]LL[dP]P))"
  Caco_R3: 14.14
- compound: "CC[C@@H](C)[C@H]1NC(=O)[C@H]2CCCN2C(=O)[C@@H]2CCCN2C(=O)[C@@H]([C@H](C)CC)NC(=O)[C@@H](Cc2ccccc2)NC(=O)[C@@H](Cc2ccccc2)N(C)C(=O)[C@@H]2CCCN2C(=O)[C@@H](C(C)C)NC1=O [Design D8.33, DPHE DILE PRO DPRO DILE DVAL PRO *DPHE] (cyclo(P[dNMeF][dF][dI]P[dP][dI][dV]))"
  Caco_R3: 16.82

Please turn your attention to the following entry.
Quick one: Caco_R3 for CC[C@H](C)[C@@H]1NC(=O)[C@H](Cc2ccccc2)N(C)C(=O)[C@H]2CCCN2C(=O)[C@H]([C@@H](C)CC)NC(=O)[C@@H](C)N(C)C(=O)[C@@H](C)NC(=O)[C@@H]2CCCN2C(=O)[C@H]2CCCN2C(=O)[C@H](CC(C)C)NC(=O)[C@@H](CC(C)C)NC(=O)[C@H](CC(C)C)NC(=O)[C@H]2CCCN2C1=O [Design D12.6] (cyclo([dA][dNMeA]I[dP][NMeF]I[dP]L[dL]L[dP]P)) ?
4.18

###

setup conditions: PAMPA
Where a SMILES comes first, the peptide text is derived from it. [ ]: non-standard residue; d: D form. dNMeF = CN[C@H](Cc1ccccc1)C(=O)O; NMeL = CN[C@@H](CC(C)C)C(=O)O; dNMeL = CN[C@H](CC(C)C)C(=O)O; NMeA = CN[C@@H](C)C(=O)O; Nle = CCCC[C@H](N)C(=O)O; dNMeA = CN[C@H](C)C(=O)O
value type: PAMPA_R1

Here's what some known entries look like.
- compound: "CC[C@H](C)[C@@H]1NC(=O)[C@H](CC(C)C)NC(=O)[C@H](Cc2ccccc2)NC(=O)[C@@H](C)NC(=O)[C@H]2CCCN2C(=O)[C@@H]2CCCN2C(=O)[C@H]2CCCN2C(=O)[C@H](CC(C)C)NC(=O)[C@@H](C(C)C)NC(=O)[C@@H](CC(C)C)N(C)C(=O)[C@@H]2CCCN2C1=O [Design D11.17] (cyclo([dP][dA]FLIP[dNMeL][dV]L[dP]P))"
  PAMPA_R1: "BQL"
- compound: "CCCC[C@@H]1NC(=O)[C@H]2CCCN2C(=O)[C@@H]2CCCN2C(=O)[C@@H](C)NC(=O)[C@H]2CCCN2C(=O)[C@@H](C(C)C)NC(=O)[C@H](C(C)C)NC(=O)[C@@H](Cc2ccccc2)N(C)C(=O)[C@H](C)N(C)C1=O [Design D9.31] (cyclo([NMeA][dNMeF]V[dV][dP][dA]P[dP][Nle]))"
  PAMPA_R1: "6.96E-08"
- compound: "CC(C)C[C@@H]1NC(=O)[C@@H](C(C)C)NC(=O)[C@@H]2CCCN2C(=O)[C@H]2CCCN2C(=O)[C@H](Cc2ccccc2)NC(=O)[C@@H](C)NC(=O)[C@@H](CC(C)C)N(C)C(=O)[C@@H]2CCCN2C(=O)[C@H]2CCCN2C(=O)[C@@H](C(C)C)NC(=O)[C@@H](C)N(C)C1=O [Design D11.12] (cyclo([dNMeL][dA]F[dP]P[dV]L[dNMeA][dV][dP]P))"
  PAMPA_R1: "BQL"
- compound: "CC(C)C[C@@H]1C(=O)N(C)[C@H](CC(C)C)C(=O)N2CCC[C@H]2C(=O)N[C@H](CC(C)C)C(=O)N2CCC[C@@H]2C(=O)N2CCC[C@@H]2C(=O)N(C)[C@H](CC(C)C)C(=O)N[C@H](Cc2ccccc2)C(=O)N[C@@H](C)C(=O)N1C [Design D9.18] (cyclo(A[dNMeL][dNMeL]P[dL][dP][dP][dNMeL][dF]))"
  PAMPA_R1: "1.88E-06"
- compound: "CC(C)C[C@@H]1C(=O)N[C@@H](C(C)C)C(=O)N[C@@H](C)C(=O)N2CCC[C@H]2C(=O)N2CCC[C@@H]2C(=O)N[C@@H](C(C)C)C(=O)N[C@@H](C)C(=O)N(C)[C@@H](CC(C)C)C(=O)N1C [Design D8.22, ALA PRO DPRO VAL ALA *LEU *DLEU VAL] (cyclo(A[NMeL][dNMeL]VAP[dP]V))"
  PAMPA_R1: "2.34E-07"

Then there is this compound:
// lookup PAMPA_R1 for CC(C)C[C@@H]1C(=O)N[C@H](C)C(=O)N[C@@H](C(C)C)C(=O)N2CCC[C@@H]2C(=O)N[C@H](C(C)C)C(=O)N2CCC[C@@H]2C(=O)N2CCC[C@H]2C(=O)N[C@H](C)C(=O)N(C)[C@H](CC(C)C)C(=O)N1C [Design D9.29] (cyclo([dA][dNMeL][dNMeL][dA]V[dP][dV][dP]P))
1.96E-06
